From: patent US20240360114A1

Recorded pEC50 values for a group of compounds are listed next.
- System: HT-1080 cells
- protocol.text: HT-1080 cell viability assay (ferroptosis induced by RSL3, Cell Titer-Glo)
- Type: cell-based
- test.context: Homo sapiens, HT-1080, 20 h, ferroptosis inducer RSL3, 20 hours, ferroptosis inhibitory activity, Table 2
pEC50: −log10 of the molar value.

Reference set, count: 6
NCC1CCC(Nc2ccc3c(c2)CCCC3)CC1 (stereo not shown) :: 7.00 to 10.00
Cc1cc(N2CCCCC2)ccc1NC1CC2(CC(N)C2)C1 (stereo not shown) :: 7.00 to 10.00
NC1CCC(Nc2cnc(N3CCC(C(F)(F)F)CC3)cn2)CC1 (stereo not shown) :: 7.00 to 10.00
CCCCC1CCN(c2ccc(NC3CCC(CN)CC3)c(C)n2)CC1 (stereo not shown) :: 7.00 to 10.00
CCCc1ccc(NC2CCC(CN)CC2)cc1 (stereo not shown) :: 7.00 to 10.00
NC1CCC(Nc2cnc(N3CCC(C(F)(F)F)CC3)nc2)CC1 (stereo not shown) :: 7.00 to 10.00

Data request, read-out pEC50, for NC1CCC(Nc2ccc(N3CCC(C(F)(F)F)CC3)cc2)CC1 (stereo not shown) 7.00 to 10.00

Data request, read-out pEC50, for N[C@H]1CC[C@H](CNc2ccc(N3CC4CCC(C3)O4)c(F)c2)CC1 7.00 to 10.00

Data request, read-out pEC50, for NC1CCC(Nc2ccc3nc(N4CCC(C(F)(F)F)CC4)ccc3c2)CC1 (stereo not shown) 7.00 to 10.00

Data request, read-out pEC50, for CCOCC(C)(C)c1ccc(NC2CCC(N)CC2)cc1 (stereo not shown) [Compound 320A] 6.00 to 7.00

----------
- Tested on: HT-1080 cells
- protocol.text: HT-1080 cell viability assay (ferroptosis induced by RSL3, Cell Titer-Glo)
- Format: cell-based
- test.context: Homo sapiens, HT-1080, 20 h, ferroptosis inducer RSL3, 20 hours, ferroptosis inhibitory activity, Table 2
pEC50: −log10 of the molar value.
assay.metric: pEC50

Cc1c(N2CC(C)OC(C)C2)ccc(NC[C@H]2CC[C@H](N)CC2)c1F (stereo partly shown) :: 6.00 to 7.00
CC1CN(c2ccc(NC[C@H]3CC[C@H](N)CC3)c(F)c2)CC(C)O1 (stereo partly shown) :: 7.00 to 10.00
CC[C@@H]1CN(c2ccc(NC[C@H]3CC[C@H](N)CC3)c(C)n2)C[C@@H](CC)O1 :: 7.00 to 10.00
CC1CN(c2ccc(NC3C4CC5CC3CC(N)(C5)C4)cc2)CC(C)O1 (stereo not shown) [Compound 421A] :: 7.00 to 10.00
CC(C)(C)c1ccc(NCC2CCC(N)C2)cc1 (stereo not shown) :: 7.00 to 10.00

Data request, read-out pEC50, for NC1C[C@@H]2CC(Nc3ccc(N4CCC(C(F)(F)F)CC4)cc3)C[C@@H]2C1 (stereo partly shown) 7.00 to 10.00

Data request, read-out pEC50, for CNCC1CCC(Nc2ccc(C(C)(C)C)cc2)C1 (stereo not shown) 6.00 to 7.00

Data request, read-out pEC50, for CC(C)(C)c1ccc(NC2CCCCC2N)cc1 (stereo not shown) 6.00 to 7.00

Data request, read-out pEC50, for CC1CN(c2ccc(NC[C@H]3CC[C@H](N)CC3)cc2F)CC(C)O1 (stereo partly shown) 7.00 to 10.00

Data request, read-out pEC50, for CC(=O)NC1CCC(Nc2ccc(C(C)(C)C)cc2)CC1 (single isomer, unassigned) [Compound 216A] 6.00 to 7.00

Data request, read-out pEC50, for CN(C)CCCN1CCC(Nc2ccc(C3CCC(C)(C)CC3)cc2)CC1=O (stereo not shown) 7.00 to 10.00
